Measured TEAC by item
# EXPERIMENT: FRAP method (Ferric Reducing Antioxidant Power), aqueous medium, 10 min incubation (after Pulido et al., 2000)
# Type: biochemical
# DETAILS: FRAP; Trolox equivalent; (SD)

Would you please look over these solved cases?
compound="O=C(CCc1ccc(O)cc1)c1c(O)cc(O)cc1O[C@@H]1O[C@H](CO)[C@@H](O)[C@H](O)[C@H]1O [Phloridzine, phloridzine, reference compound]" result="0.08 (0.00)"
compound="Oc1cc(O)c2c(c1)O[C@H](c1ccc(O)c(O)c1)[C@H](O)C2 [(-)-épicatéchine]" result="1.14 (0.03)"
compound="Cc1c(C)c2c(c(C)c1O)CCC(C)(C(=O)O)O2 (stereo not shown)" result="1.00 (0.02)"

// next entry
Q: // Input: O=C1O[C@H]([C@@H](O)CO)C(O)=C1O [Vitamine C, acide ascorbique] . Output its TEAC only.
A: 1.03 (0.02)
